Value source: PubChem BioAssay AID2409

Assay: Venezuelan equine encephalitis virus CPE inhibition in Vero cells, confirmatory stage (AID 2409)
Settings: VEEV-infected Vero cells; series mostly up to 66.6 µM
Entries with a potency or affinity are not part of this list. Activity calls are given as the source filed them. No rule for the calls is given here.
Observable: outcome

> print(dat)
                                   compound  assay.value
1  O=C(CSc1nc2ccccc2c(=O)n1-c1ccccc1F)Nc1ccc2c(c1)CCC2     inactive
2  O=C(CSc1nc2ccccc2c(=O)n1-c1ccc(F)cc1F)Nc1ccc2c(c1)CCC2     inactive
3                Nc1ccc2nc3n(c(=O)c2c1)CCC3     inactive
4  O=C(CSc1nc2ccccc2c(=O)n1-c1ccccc1)Nc1ccc2c(c1)CCC2     inactive
5                Cc1ccc2nc3n(c(=O)c2c1)CCC3     inactive
6       O=c1c2cc([N+](=O)[O-])ccc2nc2n1CCC2     inactive
7  O=C(CSc1nc2cccc(F)c2c(=O)n1-c1ccccc1)Nc1ccc2c(c1)CCC2     inactive

Let's switch to this compound now.
**Q:** What value of outcome has been reported for the following compound? OC1c2cc(Br)ccc2N=C2CCCCN21 (stereo not drawn)
**A:** inactive
